- Assay target: Q98I
- Experiment notes: SPR; 25C
pKd: −log10 of the molar value.
Experimental endpoint: pKd

Sample records with pKd:
BMP9 (ligand) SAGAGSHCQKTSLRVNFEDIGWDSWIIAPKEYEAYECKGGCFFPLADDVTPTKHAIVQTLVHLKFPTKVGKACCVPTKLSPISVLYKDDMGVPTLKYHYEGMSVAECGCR: 10.23
Activin A (ligand) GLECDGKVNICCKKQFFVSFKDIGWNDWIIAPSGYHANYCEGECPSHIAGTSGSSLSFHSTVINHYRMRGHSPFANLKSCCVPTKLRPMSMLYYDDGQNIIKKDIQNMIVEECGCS: 9.80

A = BMP10 (ligand) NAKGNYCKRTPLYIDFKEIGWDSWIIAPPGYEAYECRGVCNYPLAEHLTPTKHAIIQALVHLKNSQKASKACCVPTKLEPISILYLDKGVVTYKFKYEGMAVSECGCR
B = GDF11 (ligand) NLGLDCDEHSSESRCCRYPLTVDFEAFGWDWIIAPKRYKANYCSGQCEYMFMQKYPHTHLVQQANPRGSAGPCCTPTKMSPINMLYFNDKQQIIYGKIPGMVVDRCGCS
Problem: Pick the one with the larger pKd: A vs B Answer format: the label of the selected item.
Solution: B
(B: 10.31, A: 9.68)
